details: 25 °C
Experimental readout: log10 solubility (log10 of the value in µM)

INSERT INTO measurements (molecule, experimental_readout, endpoint_result) VALUES
  ('O=[N+]([O-])c1cc(Cl)cc(Cl)c1O', 'log10 solubility', 1.91),
  ('COc1cccc([N+](=O)[O-])c1', 'log10 solubility', 3.51),
  ('O=CC(Cl)(Cl)Cl', 'log10 solubility', 5.31),
  ('CC=C1CC2C=CC1C2 (configuration not stated)', 'log10 solubility', 1.87),
  ('CCCCCC(=O)CCCCC', 'log10 solubility', 2.47),
  ('CC(C)(C)c1ccc(O)c(C(C)(C)C)c1', 'log10 solubility', 2.23),
  ('CN(C)Cc1ccccc1', 'log10 solubility', 4.95),
  ('COC(=O)c1ccccc1C(=O)c1ccccc1', 'log10 solubility', 2.52),
  ('N#Cc1ccccc1C#N', 'log10 solubility', 3.49),
  ('OC(c1ccccc1)c1ccc(Cl)cc1 (configuration not stated)', 'log10 solubility', 2.51),
  ('OCc1ccc(Cl)c(Cl)c1', 'log10 solubility', 3.96),
  ('CCc1ccccc1[N+](=O)[O-]', 'log10 solubility', 3.20),
  ('CCCC=C(C=O)CC', 'log10 solubility', 3.67),
  ('Nc1c(Cl)cc(Cl)cc1Cl', 'log10 solubility', 2.31),
  ('CNC(=O)Oc1ccccc1C(C)C', 'log10 solubility', 3.32),
  ('CCc1cccc(CC)c1', 'log10 solubility', 2.25),
  ('CC(C)=CCC/C(C)=C/CO', 'log10 solubility', 3.17),
  ('Oc1c(Cl)cccc1Cl', 'log10 solubility', 4.07),
  ('Nc1cccc2cccc(N)c12', 'log10 solubility', 3.73),
  ('CC(C)CNCC(C)C', 'log10 solubility', 4.23),
  ('Oc1cccc(Br)c1', 'log10 solubility', 5.12),
  ('O=[N+]([O-])c1ccc(Cl)cc1C(F)(F)F', 'log10 solubility', 2.65),
  ('ClCC(Cl)(Cl)CCl', 'log10 solubility', 3.42),
  ('CC(C)(C)c1cc(C(C)(C)C)c(O)c(C(C)(C)C)c1', 'log10 solubility', 2.12),
  ('C=C1C2CCC(C2)C1(C)C (configuration not stated)', 'log10 solubility', 1.53),
  ('Cc1ccc(O)c([N+](=O)[O-])c1', 'log10 solubility', 3.62),
  ('C=CC(=C)CCC=C(C)C', 'log10 solubility', 1.61),
  ('O=C(O)c1ccccc1-c1ccccc1C(=O)O', 'log10 solubility', 3.72),
  ('O=C1CCCCCCCCCCCN1', 'log10 solubility', 3.17),
  ('Oc1cccc(Cl)c1Cl', 'log10 solubility', 4.34),
  ('CCC(C)c1cccc(C(C)CC)c1O (configuration not stated)', 'log10 solubility', 0.94),
  ('O=[N+]([O-])c1c(Cl)cc(Cl)cc1Cl', 'log10 solubility', 1.44),
  ('N=C(Nc1ccccc1)Nc1ccccc1', 'log10 solubility', 3.67),
  ('Nc1ccc(Cl)cc1Cl', 'log10 solubility', 3.58),
  ('C=CCc1ccc(OC)c(OC)c1', 'log10 solubility', 3.45),
  ('O=C(OOC(=O)c1ccccc1)c1ccccc1', 'log10 solubility', 1.58),
  ('c1ccc(Nc2cccc3ccccc23)cc1', 'log10 solubility', 2.44),
  ('Oc1ccc(Cc2ccccc2)cc1', 'log10 solubility', 2.60),
  ('Cc1cc(C)c(O)c(C)c1', 'log10 solubility', 3.94),
  ('CCCCNCCCC', 'log10 solubility', 4.56),
  ('Oc1cc(Cl)ccc1Cl', 'log10 solubility', 4.09),
  ('Nc1cccc2c(N)cccc12', 'log10 solubility', 3.38),
  ('COc1ccc(N)c([N+](=O)[O-])c1', 'log10 solubility', 2.85),
  ('N#CCc1ccccc1', 'log10 solubility', 2.93),
  ('CC(=O)N(C)c1ccccc1', 'log10 solubility', 5.05),
  ('ClC1CCCCC1', 'log10 solubility', 3.63),
  ('CCCCCCCCN(CCCCCCCC)CCCCCCCC', 'log10 solubility', -0.85),
  ('CCNc1cccc2ccccc12', 'log10 solubility', 2.81),
  ('COc1ccc(O)cc1', 'log10 solubility', 5.51),
  ('Cc1ccsc1', 'log10 solubility', 3.61),
  ('c1ccc2sc(SSc3nc4ccccc4s3)nc2c1', 'log10 solubility', 1.48),
  ('Cc1ccc([N+](=O)[O-])cc1O', 'log10 solubility', 3.81),
  ('O=C(O)c1ccc2ccccc2c1', 'log10 solubility', 2.44),
  ('C=C(C)CCl', 'log10 solubility', 4.19),
  ('Clc1ccccn1', 'log10 solubility', 5.25),
  ('OCC(CO)(CBr)CBr', 'log10 solubility', 5.16),
  ('COc1cccc2ccccc12', 'log10 solubility', 1.80),
  ('CCCCOCCOCCOC(C)=O', 'log10 solubility', 5.34),
  ('ClC(Cl)C(Cl)C(Cl)Cl', 'log10 solubility', 3.28),
  ('CNc1cccc(C)c1', 'log10 solubility', 3.95),
  ('O=C(O)C1C(C(=O)O)C2(Cl)C(Cl)=C(Cl)C1(Cl)C2(Cl)Cl (configuration not stated)', 'log10 solubility', 3.95),
  ('C=C(C)C(=O)OCCO', 'log10 solubility', 5.89),
  ('Oc1c(Cl)cc(Cl)c(Cl)c1Cl', 'log10 solubility', 2.00),
  ('CC(=O)Nc1ccccc1O', 'log10 solubility', 3.76),
  ('CCCCCCCCC#N', 'log10 solubility', 2.70),
  ('CC(C)(OOC(C)(C)c1ccccc1)c1ccccc1', 'log10 solubility', 0.23),
  ('Cc1cc(Cc2cc(C)cc(C(C)(C)C)c2O)c(O)c(C(C)(C)C)c1', 'log10 solubility', -1.23);

* * *

Quick rule for you: logP under 4 gets Satisfied, anything else gets Not satisfied.

INSERT INTO results (molecule, answer_label) VALUES
  ('CCOC(=O)C(O)(c1ccc(Cl)cc1)c1ccc(Cl)cc1', 'Not satisfied'),
  ('Cc1ccc([N+](=O)[O-])cc1O', 'Satisfied'),
  ('CCC(C)=NO', 'Satisfied'),
  ('N#CCCNCCC#N', 'Satisfied'),
  ('Oc1c(Cl)cc(Cl)c2ccccc12', 'Not satisfied'),
  ('Cc1ccc(C)c(Cc2ccccc2)c1', 'Not satisfied'),
  ('CC(C)(C)C(=O)O', 'Satisfied'),
  ('CC=C1CC2C=CC1C2 (configuration not stated)', 'Satisfied'),
  ('CC(C)C(O)C(C)(C)CO (configuration not stated)', 'Satisfied'),
  ('O=C1c2ccccc2C(=O)c2c1ccc1ccccc21', 'Not satisfied'),
  ('ClCCOC(c1ccccc1)c1ccccc1', 'Not satisfied'),
  ('CCOP(=S)(Oc1ccc([N+](=O)[O-])cc1)c1ccccc1 (configuration not stated)', 'Not satisfied');

* * *

details: 20 °C
Experimental readout: solubility (mM)

INSERT INTO measurements (compound, result_units, endpoint_result) VALUES
  ('COC(C)CCOC(C)=O (stereo unspecified)', 'mM', 31.5);

* * *

As shown below, each of these compounds has a reported solubility value.
Experimental readout: solubility (µM)

INSERT INTO measurements (compound, experimental_readout, endpoint_result) VALUES
  ('CC(C)(O)CCCC1=CCC(C=O)CC1 (configuration not stated)', 'solubility', 29000),
  ('CC(C)COc1ccc2ccccc2c1', 'solubility', 6.14),
  ('COC(=O)c1cccc(C(=O)OC)c1', 'solubility', 1490),
  ('CC1CC(C)(C)CC(OOC(C)(C)C)(OOC(C)(C)C)C1 (configuration not stated)', 'solubility', 1.98),
  ('CCCCOC(=O)CC(CC(=O)OCCCC)(OC(C)=O)C(=O)OCCCC', 'solubility', 12.4),
  ('CCCCC(CC)COC(=O)/C=C/C(=O)OCC(CC)CCCC (configuration not stated)', 'solubility', 294),
  ('CCCCCC1C(=O)CCC1CC(=O)OC (configuration not stated)', 'solubility', 1240);

* * *

details: 25 °C
Tag: rule met if measured solubility is not below 8 mM, rule not met if it is.

INSERT INTO results (compound, answer_label) VALUES
  ('C=CC(OC(C)=O)OC(C)=O', 'rule met'),
  ('CC(C)CN1CCOCC1', 'rule met'),
  ('CC(CCl)OP(=O)(OC(C)CCl)OC(C)CCl (stereo not given)', 'rule not met'),
  ('CC(C)=CC=C(C)C', 'rule not met');
